Origin of values: PubChem BioAssay AID1963438

test system: NCI-H510 multicellular tumor spheroid growth, % test/control; experiment: Anticancer human tumor NCI-H510 cell line growth inhibition [Asc]; settings: second compound 0.0949 µM; first compound 0.316 µM; stronger effect = lower value;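 note: spheroids exposed to agents for 7 days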;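 for viability, T/C: 100% = DMSO vehicle control wells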
Exercise: state measured viability, T/C for each of the molecules provided.
Numbers only, in %.

CNC(C)C(=O)NC1CN(S(=O)(=O)c2cccc(S(=O)(=O)N3CCC4CCC(C(=O)NC(c5ccccc5)c5ccccc5)N4C(=O)C(NC(=O)C(C)NC)C3)c2)CCC2CCC(C(=O)NC(c3ccccc3)c3ccccc3)N2C1=O (centres undefined) + CCN1C(C(=O)NC23CCC(C(=O)O)(CC2)CC3)C(c2cccc(Cl)c2F)C2(C(=O)Nc3cc(Cl)ccc32)C12CCCCC2: 105
COc1c(OCCCN2CCOCC2)ccc2c3n(c(=NC(=O)c4cnc(N)nc4)nc12)CCN3 + CCN1C(C(=O)NC23CCC(C(=O)O)(CC2)CC3)C(c2cccc(Cl)c2F)C2(C(=O)Nc3cc(Cl)ccc32)C12CCCCC2: 92.5
CCN1CCN(Cc2ccc(Nc3ncc(F)c(-c4cc(F)c5nc(C)n(C(C)C)c5c4)n3)nc2)CC1 + CCN1C(C(=O)NC23CCC(C(=O)O)(CC2)CC3)C(c2cccc(Cl)c2F)C2(C(=O)Nc3cc(Cl)ccc32)C12CCCCC2: 105

# ---- query molecule ----
// O=C(c1cc(Cc2n[nH]c(=O)c3ccccc23)ccc1F)N1CCN(C(=O)C2CC2)CC1 + CCN1C(C(=O)NC23CCC(C(=O)O)(CC2)CC3)C(c2cccc(Cl)c2F)C2(C(=O)Nc3cc(Cl)ccc32)C12CCCCC2 : viability, T/C value = 105

====

I'd appreciate it if you could supply pIC50 values for the items below.
system: NCI-H510 multicellular tumor spheroid growth, % test/control; assay: Anticancer human tumor NCI-H510 cell line growth inhibition [Asc]; conditions: curve of first compound; second compound 0.1 µM;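 note: spheroids exposed to agents for 7 days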
pIC50: −log10 of the molar value.

Example entries and their recorded answers appear below.
Cc1nc(N2CCC3(CC2)COC(C)C3N)c(CO)nc1Sc1ccnc(N)c1Cl (stereo not drawn) + Cc1c(S(C)(=O)=O)c(-c2cc(F)cc(N3CCN(c4ccc(NS(=O)(=O)c5ccc(NC(CCN6CCC(C(=O)OCCCP(=O)(O)O)CC6)CSc6ccccc6)c(S(=O)(=O)C(F)(F)F)c5)cc4)CC3)c2)c(-c2ccc(Cl)cc2)n1C(C)C: < 5.52
O=C(c1ccc(F)c(F)c1Nc1ccc(I)cc1F)N1CC(O)([C@@H]2CCCCN2)C1 + Cc1c(S(C)(=O)=O)c(-c2cc(F)cc(N3CCN(c4ccc(NS(=O)(=O)c5ccc(NC(CCN6CCC(C(=O)OCCCP(=O)(O)O)CC6)CSc6ccccc6)c(S(=O)(=O)C(F)(F)F)c5)cc4)CC3)c2)c(-c2ccc(Cl)cc2)n1C(C)C: < 6.00
CCN1CCN(Cc2ccc(Nc3ncc(F)c(-c4cc(F)c5nc(C)n(C(C)C)c5c4)n3)nc2)CC1 + Cc1c(S(C)(=O)=O)c(-c2cc(F)cc(N3CCN(c4ccc(NS(=O)(=O)c5ccc(NC(CCN6CCC(C(=O)OCCCP(=O)(O)O)CC6)CSc6ccccc6)c(S(=O)(=O)C(F)(F)F)c5)cc4)CC3)c2)c(-c2ccc(Cl)cc2)n1C(C)C: < 6.00
NC(=O)C(=Cn1cnc(-c2cc(C(F)(F)F)cc(C(F)(F)F)c2)n1)c1cncnc1 + Cc1c(S(C)(=O)=O)c(-c2cc(F)cc(N3CCN(c4ccc(NS(=O)(=O)c5ccc(NC(CCN6CCC(C(=O)OCCCP(=O)(O)O)CC6)CSc6ccccc6)c(S(=O)(=O)C(F)(F)F)c5)cc4)CC3)c2)c(-c2ccc(Cl)cc2)n1C(C)C: 6.70
Cn1ncnc1[C@H]1c2n[nH]c(=O)c3cc(F)cc(c23)N[C@@H]1c1ccc(F)cc1 + CNC(C)C(=O)NC1CN(S(=O)(=O)c2cccc(S(=O)(=O)N3CCC4CCC(C(=O)NC(c5ccccc5)c5ccccc5)N4C(=O)C(NC(=O)C(C)NC)C3)c2)CCC2CCC(C(=O)NC(c3ccccc3)c3ccccc3)N2C1=O: < 7.00
COc1c(OCCCN2CCOCC2)ccc2c3n(c(=NC(=O)c4cnc(N)nc4)nc12)CCN3 + CNC(C)C(=O)NC1CN(S(=O)(=O)c2cccc(S(=O)(=O)N3CCC4CCC(C(=O)NC(c5ccccc5)c5ccccc5)N4C(=O)C(NC(=O)C(C)NC)C3)c2)CCC2CCC(C(=O)NC(c3ccccc3)c3ccccc3)N2C1=O: < 6.00

For each of the compounds below, note its pIC50.
1. O=C(c1cc(Cc2n[nH]c(=O)c3ccccc23)ccc1F)N1CCN(C(=O)C2CC2)CC1 + CNC(C)C(=O)NC1CN(S(=O)(=O)c2cccc(S(=O)(=O)N3CCC4CCC(C(=O)NC(c5ccccc5)c5ccccc5)N4C(=O)C(NC(=O)C(C)NC)C3)c2)CCC2CCC(C(=O)NC(c3ccccc3)c3ccccc3)N2C1=O
2. COc1c(OCCCN2CCOCC2)ccc2c3n(c(=NC(=O)c4cnc(N)nc4)nc12)CCN3 + Cc1c(S(C)(=O)=O)c(-c2cc(F)cc(N3CCN(c4ccc(NS(=O)(=O)c5ccc(NC(CCN6CCC(C(=O)OCCCP(=O)(O)O)CC6)CSc6ccccc6)c(S(=O)(=O)C(F)(F)F)c5)cc4)CC3)c2)c(-c2ccc(Cl)cc2)n1C(C)C

1: 5.05; 2: < 6.00

====

System: NCI-H510 multicellular tumor spheroid growth, % test/control
Test: Anticancer human tumor NCI-H510 cell line growth inhibition [Asc];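 note: spheroids exposed to agents for 7 days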;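 for viability, T/C: 100% = DMSO vehicle control wells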
Conditions: second compound 0.1 µM; first compound 0.00949 µM; stronger effect = lower value
From the text: Multicellular complex tumor spheroid response to apoptosis pathway targeting inhibitors Alrizomadlin, Pelcitoclax, and Dasminapant in combination with a variety of drugs and investigational agents in selected tumor cell lines […] Compounds. […] If the clinical Cmax for an agent had not been determined, the highest concentration tested was 10 microM. […]
Provide the reported viability, T/C of each item.

// below: answered molecules
NC(=O)C(=Cn1cnc(-c2cc(C(F)(F)F)cc(C(F)(F)F)c2)n1)c1cncnc1 + Cc1c(S(C)(=O)=O)c(-c2cc(F)cc(N3CCN(c4ccc(NS(=O)(=O)c5ccc(NC(CCN6CCC(C(=O)OCCCP(=O)(O)O)CC6)CSc6ccccc6)c(S(=O)(=O)C(F)(F)F)c5)cc4)CC3)c2)c(-c2ccc(Cl)cc2)n1C(C)C: 109%
CCN1C(C(=O)NC23CCC(C(=O)O)(CC2)CC3)C(c2cccc(Cl)c2F)C2(C(=O)Nc3cc(Cl)ccc32)C12CCCCC2 (stereo not drawn) + Cc1c(S(C)(=O)=O)c(-c2cc(F)cc(N3CCN(c4ccc(NS(=O)(=O)c5ccc(NC(CCN6CCC(C(=O)OCCCP(=O)(O)O)CC6)CSc6ccccc6)c(S(=O)(=O)C(F)(F)F)c5)cc4)CC3)c2)c(-c2ccc(Cl)cc2)n1C(C)C: 101%

Entry Cc1nc(N2CCC3(CC2)COC(C)C3N)c(CO)nc1Sc1ccnc(N)c1Cl (stereo not drawn) + CNC(C)C(=O)NC1CN(S(=O)(=O)c2cccc(S(=O)(=O)N3CCC4CCC(C(=O)NC(c5ccccc5)c5ccccc5)N4C(=O)C(NC(=O)C(C)NC)C3)c2)CCC2CCC(C(=O)NC(c3ccccc3)c3ccccc3)N2C1=O , viability, T/C reported as 99.3%

====

Test system: NCI-H510 multicellular tumor spheroid growth, % test/control
Test: Anticancer human tumor NCI-H510 cell line growth inhibition [Asc];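 note: spheroids exposed to agents for 7 days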;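 for viability, T/C: 100% = DMSO vehicle control wells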
Settings: second compound 0.3 µM; first compound 0.316 µM; stronger effect = lower value
Text: Multicellular complex tumor spheroid response to apoptosis pathway targeting inhibitors Alrizomadlin, Pelcitoclax, and Dasminapant in combination with a variety of drugs and investigational agents in selected tumor cell lines […] Compounds. […] If the clinical Cmax for an agent had not been determined, the highest concentration tested was 10 microM. […]
Provide the recorded viability, T/C for the entries that follow.
One number for each entry, in %.

Example results:
O=C(c1cc(Cc2n[nH]c(=O)c3ccccc23)ccc1F)N1CCN(C(=O)C2CC2)CC1 + CCN1C(C(=O)NC23CCC(C(=O)O)(CC2)CC3)C(c2cccc(Cl)c2F)C2(C(=O)Nc3cc(Cl)ccc32)C12CCCCC2: 95.7
C=CC(=O)N1CCN(c2nc(=O)n(-c3c(C)ccnc3C(C)C)c3nc(-c4c(O)cccc4F)c(F)cc23)C(C)C1 (centres undefined) + CCN1C(C(=O)NC23CCC(C(=O)O)(CC2)CC3)C(c2cccc(Cl)c2F)C2(C(=O)Nc3cc(Cl)ccc32)C12CCCCC2: 91.5
CCN1CCN(Cc2ccc(Nc3ncc(F)c(-c4cc(F)c5nc(C)n(C(C)C)c5c4)n3)nc2)CC1 + CCN1C(C(=O)NC23CCC(C(=O)O)(CC2)CC3)C(c2cccc(Cl)c2F)C2(C(=O)Nc3cc(Cl)ccc32)C12CCCCC2: 106

Consider the record given below.
Value of viability, T/C reported for the compound C#Cc1c(F)ccc2cc(O)cc(-c3ncc4c(N5CC6CCC(C5)N6)nc(OCC56CCCN5CC(F)C6)nc4c3F)c12 (centres undefined) + CCN1C(C(=O)NC23CCC(C(=O)O)(CC2)CC3)C(c2cccc(Cl)c2F)C2(C(=O)Nc3cc(Cl)ccc32)C12CCCCC2 is 92.5
